- Tested on: MFM-223
- protocolText: normalised viability (% of control), CellTiter-Blue; higher = more viable cells (about 100 = DMSO control)
- assayConditions: 10000 nM; incubation time: 72 h
quantityName: normalised viability (%)
Entry rule: numbers only, all in %.

The following compounds have reported results that may help.
C[C@]12CC[C@@H]3c4ccc(O)cc4C[C@@H](CCCCCCCCC[S+]([O-])CCCC(F)(F)C(F)(F)F)[C@H]3[C@@H]1CC[C@@H]2O (stereo partly specified) = 45.2
CCC1=C[C@@H]2CN(C1)Cc1c([nH]c3ccccc13)[C@@](C(=O)OC)(c1cc3c(cc1OC)N(C)[C@H]1[C@@](O)(C(=O)OC)[C@H](OC(C)=O)[C@]4(CC)C=CCN5CC[C@]31[C@@H]54)C2 = 29.1
Cc1ccc(-n2nc(C(C)(C)C)cc2NC(=O)Nc2ccc(OCCN3CCOCC3)c3ccccc23)cc1 = 81.5
COc1cc([C@@H]2c3cc4c(cc3[C@@H](O[C@@H]3O[C@@H]5CO[C@@H](C)O[C@H]5[C@H](O)[C@H]3O)[C@H]3COC(=O)[C@H]23)OCO4)cc(OC)c1O [Etoposide] = 81.6

[Q] For the compound shown here, CCC1(c2ccc(N)cc2)CCC(=O)NC1=O (stereo unspecified) [Aminoglutethimide] , give the reported normalised viability.
[A] 97.5

[Q] For the compound shown here, Clc1ccc(Nc2nnc(Cc3ccncc3)c3ccccc23)cc1 , give the reported normalised viability.
[A] 111
